SYSTEM: Complex IV (Mus musculus, UniProt P00397+P00405+P00416)
RUN_DESCRIPTION: Immunocapture ELISA microplate enzyme activity assay
RECORDED_CONDITIONS: read-out: IC50 Complex IV activity; mouse liver mitochondria extract; 0.01–10 µM
pIC50: −log10 of the molar value.
METRIC: pIC50

Ic1ccc(-c2c3ccc(=[N+]4CCCCC4)cc-3oc3cc(N4CCCCC4)ccc23)cc1: < 5.00

Next compound, please.
For the compound c1csc(-c2c3ccc(=[N+]4CCCCC4)cc-3oc3cc(N4CCCCC4)ccc23)c1 , what pIC50 is on record?
< 5.00
